System: Providencia rettgeri
Experiment: Antibacterial activity against Providencia rettgeri DRDE after 24 hrs by broth microdilution method
Assay type: functional
Active and inactive are the calls of the source. No cut-off for these calls is given here.
reported.endpoint: MIC95

>>> experimental_value("COc1cc(/C=C/c2cc(/C=C/c3ccc(O)c(OC)c3)n(C(=O)c3ccncc3)n2)ccc1O")
"inactive"
>>> experimental_value("COc1cc(/C=C/C(=O)CC(=O)/C=C/c2ccc(O)c(OC)c2)ccc1O")
"20 uM/ml"
>>> experimental_value("COc1cc(/C=C/c2cc(/C=C/c3ccc(O)c(OC)c3)n(-c3ccc([N+](=O)[O-])cc3[N+](=O)[O-])n2)ccc1O")
"inactive"
>>> experimental_value("COc1cc(/C=C/C(=O)C(=Cc2ccccc2)C(=O)/C=C/c2ccc(O)c(OC)c2)ccc1O")
"0.625 uM/ml"
>>> experimental_value("COc1cc(/C=C/c2cc(/C=C/c3ccc(O)c(OC)c3)n(C(N)=S)n2)ccc1O")
"1.25 uM/ml"
>>> experimental_value("COc1cc(/C=C/C(=O)C2=C(/C=C/c3ccc(O)c(OC)c3)N=C3Sc4ccccc4N3C2c2ccccc2)ccc1O (centres undefined)")
"20 uM/ml"
>>> experimental_value("COc1cc(/C=C/C(=O)C2=C(/C=C/c3ccc(O)c(OC)c3)N=C3Sc4ccccc4N3C2c2ccc(O)cc2)ccc1O (centres undefined)")
"inactive"
>>> experimental_value("COc1cc(/C=C/C(=O)C2=C(/C=C/c3ccc(O)c(OC)c3)N=C3Sc4ccccc4N3C2c2ccccc2O)ccc1O (centres undefined)")
"inactive"
>>> experimental_value("COc1cc(/C=C/C(=O)C2=C(/C=C/c3ccc(O)c(OC)c3)N=C3Sc4ccccc4N3C2c2c(Cl)cccc2Cl)ccc1O (centres undefined)")
"10 uM/ml"
>>> experimental_value("COc1cc(/C=C/C(=O)C2=C(/C=C/c3ccc(O)c(OC)c3)N=C3Sc4ccccc4N3C2c2ccc(Cl)cc2)ccc1O (centres undefined)")
"inactive"

Input: Can you look up the measured MIC95 of COc1cc(C=C(C(=O)/C=C/c2ccc(O)c(OC)c2)C(=O)/C=C/c2ccc(O)c(OC)c2)ccc1O for me?
Output: 2.5 uM/ml

Input: Now consider COc1cc(/C=C/C(=O)C2=C(/C=C/c3ccc(O)c(OC)c3)N=C3Sc4ccccc4N3C2c2ccc(C)cc2)ccc1O (centres undefined) and answer again.
Output: 20 uM/ml

Input: Another compound to check: COc1cc(/C=C/C(=O)C(=Cc2ccccc2O)C(=O)/C=C/c2ccc(O)c(OC)c2)ccc1O
Output: 1.25 uM/ml

Input: Likewise for COc1cc(/C=C/C(=O)C(=Cc2ccc(N(C)C)cc2)C(=O)/C=C/c2ccc(O)c(OC)c2)ccc1O ?
Output: inactive
